# ASSAY SYSTEM: Human immunodeficiency virus type 1 reverse transcriptase (Human immunodeficiency virus 1)
# ASSAY SUMMARY: Discrimination index, ratio of incorporation efficiency of dATP to incorporation efficiency of compound for wild type HIV1 reverse transcriptase
For each record, write down the corresponding Ratio.
One number for each entry.

Some compounds with recorded Ratio:
SMILES STRUCTURE: Nc1ncnc2c1ncn2[C@H]1C[C@@H](COP(=O)(O)OP(=O)(O)OP(=O)(O)O)C1
MEASURED ATTRIBUTE: Ratio
VALUE: 245

SMILES STRUCTURE: C[C@H](Cn1cnc2c(N)ncnc21)OCP(=O)(O)OP(=O)(O)OP(=O)(O)O
MEASURED ATTRIBUTE: Ratio
VALUE: 56

SMILES STRUCTURE: NC1=Nc2ncnc3c2c(cn3[C@H]2C[C@@H](COP(=O)(O)OP(=O)(O)OP(=O)(O)O)C2)C=C1
MEASURED ATTRIBUTE: Ratio
VALUE: 386

SMILES STRUCTURE: Nc1ncnc2c1ncn2[C@@H]1C[C@H](COP(=O)(O)OP(=O)(O)OP(=O)(O)O)[C@H]1F
MEASURED ATTRIBUTE: Ratio
VALUE: 519

Let us move to another entry and its Ratio.
### Prompt Which Ratio value belongs to Nc1ncnc2c1ncn2[C@H]1C[C@@H](OCP(=O)(O)OP(=O)(O)OP(=O)(O)O)C1 ?
### Response 13

Entry source: ChEMBL document CHEMBL2046281
